Numbers sourced from PubChem BioAssay AID2060901.

# Tested on: 422866-222-R5-J1-PDC complex spheroids viability
# EXPERIMENTAL_DETAILS: Anticancer human tumor 422866-222-R5-J1-PDC patient-derived pancreatic adenocarcinoma cell line growth inhibition [RAS]
# STUDY_CONDITIONS: second compound 0.3 µM; first compound 1 µM; hits give low values
// classify: if (viability, T/C < 20%) 1 else -1

Is 20% strictly greater than the compound's reported viability, T/C? compound: O=C(c1ccc(F)c(F)c1Nc1ccc(I)cc1F)N1CC(O)([C@@H]2CCCCN2)C1 + CCn1c(-c2cccnc2C(C)OC)c2c3cc(ccc31)N1CCOC(CC(NC(=O)C(C(C)C)N(C)C(=O)C3(F)CCN(C(=O)C#CC(C)(C)N(C)C)CC3)C(=O)N3CCCC(N3)C(=O)OCC(C)(C)C2)C1 1

Is 20% strictly greater than the compound's reported viability, T/C? compound: C=CC(=O)Nc1cc(Nc2nccc(-c3cn(C)c4ccccc34)n2)c(OC)cc1N(C)CCN(C)C + CCn1c(-c2cccnc2C(C)OC)c2c3cc(ccc31)N1CCOC(CC(NC(=O)C(C(C)C)N(C)C(=O)C3(F)CCN(C(=O)C#CC(C)(C)N(C)C)CC3)C(=O)N3CCCC(N3)C(=O)OCC(C)(C)C2)C1 1

Is 20% strictly greater than the compound's reported viability, T/C? compound: Nc1ccn(C2OC(CO)C(O)C2(F)F)c(=O)n1 (stereo not drawn) + CCn1c(-c2cc(N3CCN(C)CC3)cnc2C(C)OC)c2c3cc(ccc31)-c1csc(n1)CC(NC(=O)C1CC1C)C(=O)N1CCCC(N1)C(=O)OCC(C)(C)C2 1

Is 20% strictly greater than the compound's reported viability, T/C? compound: O=C(c1ccc(F)c(F)c1Nc1ccc(I)cc1F)N1CC(O)([C@@H]2CCCCN2)C1 + CCn1c(-c2cc(N3CCN(C)CC3)cnc2C(C)OC)c2c3cc(ccc31)-c1csc(n1)CC(NC(=O)C1CC1C)C(=O)N1CCCC(N1)C(=O)OCC(C)(C)C2 1

Is 20% strictly greater than the compound's reported viability, T/C? compound: CCC(CC)c1cc(NC2CCC(N)C2)n2nccc2n1 (stereo not drawn) + CCn1c(-c2cccnc2C(C)OC)c2c3cc(ccc31)N1CCOC(CC(NC(=O)C(C(C)C)N(C)C(=O)C3(F)CCN(C(=O)C#CC(C)(C)N(C)C)CC3)C(=O)N3CCCC(N3)C(=O)OCC(C)(C)C2)C1 -1

Is 20% strictly greater than the compound's reported viability, T/C? compound: C=CC(=O)N1CCN(c2nc(OCC3CCCN3C)nc3c(F)c(-c4nc(N)cc(C)c4C(F)(F)F)c(Cl)cc23)C(C)C1 (stereo not drawn) + CCn1c(-c2cc(N3CCN(C)CC3)cnc2C(C)OC)c2c3cc(ccc31)-c1csc(n1)CC(NC(=O)C1CC1C)C(=O)N1CCCC(N1)C(=O)OCC(C)(C)C2 -1

Is 20% strictly greater than the compound's reported viability, T/C? compound: C=CC(=O)Nc1cc(Nc2nccc(-c3cn(C)c4ccccc34)n2)c(OC)cc1N(C)CCN(C)C + CCn1c(-c2cc(N3CCN(C)CC3)cnc2C(C)OC)c2c3cc(ccc31)-c1csc(n1)CC(NC(=O)C1CC1C)C(=O)N1CCCC(N1)C(=O)OCC(C)(C)C2 -1

----------
# Test system: 422866-222-R5-J1-PDC complex spheroids viability
# EXPERIMENTAL_DETAILS: Anticancer human tumor 422866-222-R5-J1-PDC cell line growth inhibition [RAS];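 also: spheroids exposed to compounds for 7 days; 100% = DMSO vehicle control viability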
# STUDY_CONDITIONS: second compound 0.1 µM; first compound 1 µM; hits give low values
REPORTED_METRIC: viability, T/C (%)
Could you give me the number in %? Just the number is fine.

Consider the compound CC(=O)OC12COC1CC(O)C1(C)C(=O)C(O)C3=C(C)C(OC(=O)C(O)C(NC(=O)OC(C)(C)C)c4ccccc4)CC(O)(C(OC(=O)c4ccccc4)C21)C3(C)C (centres undefined) + C#Cc1c(F)ccc2cc(O)cc(-c3ncc4c(N5CC6CCC(C5)N6)nc(OCC56CCCN5CC(F)C6)nc4c3F)c12 and give its recorded viability, T/C. 65.5

Consider the compound CC1(O)CCCC1n1c(=O)c(C(F)F)cc2cnc(NC3CCN(S(C)(=O)=O)CC3)nc21 (centres undefined) + C#Cc1c(F)ccc2cc(O)cc(-c3ncc4c(N5CC6CCC(C5)N6)nc(OCC56CCCN5CC(F)C6)nc4c3F)c12 and give its recorded viability, T/C. 78.8

Consider the compound C=CC(=O)Nc1cc(Nc2nccc(-c3cn(C)c4ccccc34)n2)c(OC)cc1N(C)CCN(C)C + C#Cc1c(F)ccc2cc(O)cc(-c3ncc4c(N5CC6CCC(C5)N6)nc(OCC56CCCN5CC(F)C6)nc4c3F)c12 and give its recorded viability, T/C. 50.2

Consider the compound CC(C)NCC(C(=O)N1CCN(c2ncnc3c2C(C)CC3O)CC1)c1ccc(Cl)cc1 (centres undefined) + C#Cc1c(F)ccc2cc(O)cc(-c3ncc4c(N5CC6CCC(C5)N6)nc(OCC56CCCN5CC(F)C6)nc4c3F)c12 and give its recorded viability, T/C. 74.7

----------
# System: 422866-222-R5-J1-PDC complex spheroids viability
# EXPERIMENTAL_DETAILS: Anticancer human tumor 422866-222-R5-J1-PDC cell line growth inhibition [RAS];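 also: spheroids exposed to compounds for 7 days; 100% = DMSO vehicle control viability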
# STUDY_CONDITIONS: second compound 0.1 µM; first compound 0.1 µM; hits give low values
Task for the reader: assign each of the following compounds its reported viability, T/C.
Could you give me the number in %? Just the number is fine.

Consider the compound CCN1CCN(Cc2ccc(Nc3ncc(F)c(-c4cc(F)c5nc(C)n(C(C)C)c5c4)n3)nc2)CC1 + C#Cc1c(F)ccc2cc(O)cc(-c3ncc4c(N5CC6CCC(C5)N6)nc(OCC56CCCN5CC(F)C6)nc4c3F)c12 and give its recorded viability, T/C. 62.4

Consider the compound CCN1CCN(Cc2ccc(Nc3ncc(F)c(-c4cc(F)c5nc(C)n(C(C)C)c5c4)n3)nc2)CC1 + C=CC(=O)N1CCN(c2nc(OCC3CCCN3C)nc3c(F)c(-c4nc(N)cc(C)c4C(F)(F)F)c(Cl)cc23)C(C)C1 and give its recorded viability, T/C. 20.7

Consider the compound CC(=O)OC12COC1CC(O)C1(C)C(=O)C(O)C3=C(C)C(OC(=O)C(O)C(NC(=O)OC(C)(C)C)c4ccccc4)CC(O)(C(OC(=O)c4ccccc4)C21)C3(C)C (centres undefined) + C#Cc1c(F)ccc2cc(O)cc(-c3ncc4c(N5CC6CCC(C5)N6)nc(OCC56CCCN5CC(F)C6)nc4c3F)c12 and give its recorded viability, T/C. 61.3

Consider the compound CC(Nc1ccc2c(c1)OCCn1cc(N3C(=O)OCC3C(F)F)nc1-2)C(N)=O (centres undefined) + C=CC(=O)N1CCN(c2nc(OCC3CCCN3C)nc3c(F)c(-c4nc(N)cc(C)c4C(F)(F)F)c(Cl)cc23)C(C)C1 and give its recorded viability, T/C. 10.9

----------
# System: 422866-222-R5-J1-PDC complex spheroids viability
# EXPERIMENTAL_DETAILS: Anticancer human tumor 422866-222-R5-J1-PDC cell line growth inhibition [RAS];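 also: spheroids exposed to compounds for 7 days; 100% = DMSO vehicle control viability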
# STUDY_CONDITIONS: second compound 0.03 µM; first compound 1 µM; hits give low values
Task for the reader: assign each of the following molecules its reported viability, T/C.
Could you give me the number in %? Just the number is fine.

Report measured viability, T/C on 422866-222-R5-J1-PDC complex spheroids viability; entry: CC(=O)OC12COC1CC(O)C1(C)C(=O)C(O)C3=C(C)C(OC(=O)C(O)C(NC(=O)OC(C)(C)C)c4ccccc4)CC(O)(C(OC(=O)c4ccccc4)C21)C3(C)C (stereo not given) + CCn1c(-c2cccnc2C(C)OC)c2c3cc(ccc31)N1CCOC(CC(NC(=O)C(C(C)C)N(C)C(=O)C3(F)CCN(C(=O)C#CC(C)(C)N(C)C)CC3)C(=O)N3CCCC(N3)C(=O)OCC(C)(C)C2)C1 19

Report measured viability, T/C on 422866-222-R5-J1-PDC complex spheroids viability; entry: CC(C)NCC(C(=O)N1CCN(c2ncnc3c2C(C)CC3O)CC1)c1ccc(Cl)cc1 (stereo not given) + CCn1c(-c2cccnc2C(C)OC)c2c3cc(ccc31)N1CCOC(CC(NC(=O)C(C(C)C)N(C)C(=O)C3(F)CCN(C(=O)C#CC(C)(C)N(C)C)CC3)C(=O)N3CCCC(N3)C(=O)OCC(C)(C)C2)C1 12.1

Report measured viability, T/C on 422866-222-R5-J1-PDC complex spheroids viability; entry: C=CC(=O)Nc1cc(Nc2nccc(-c3cn(C)c4ccccc34)n2)c(OC)cc1N(C)CCN(C)C + CCn1c(-c2cccnc2C(C)OC)c2c3cc(ccc31)N1CCOC(CC(NC(=O)C(C(C)C)N(C)C(=O)C3(F)CCN(C(=O)C#CC(C)(C)N(C)C)CC3)C(=O)N3CCCC(N3)C(=O)OCC(C)(C)C2)C1 15.4

Report measured viability, T/C on 422866-222-R5-J1-PDC complex spheroids viability; entry: C[C@@H](NC(=O)c1ncnc(N)c1Cl)c1ncc(C(=O)Nc2cc(C(F)(F)F)c(Cl)cn2)s1 + CCn1c(-c2cc(N3CCN(C)CC3)cnc2C(C)OC)c2c3cc(ccc31)-c1csc(n1)CC(NC(=O)C1CC1C)C(=O)N1CCCC(N1)C(=O)OCC(C)(C)C2 23.8

Report measured viability, T/C on 422866-222-R5-J1-PDC complex spheroids viability; entry: CC1(O)CCCC1n1c(=O)c(C(F)F)cc2cnc(NC3CCN(S(C)(=O)=O)CC3)nc21 (stereo not given) + CCn1c(-c2cc(N3CCN(C)CC3)cnc2C(C)OC)c2c3cc(ccc31)-c1csc(n1)CC(NC(=O)C1CC1C)C(=O)N1CCCC(N1)C(=O)OCC(C)(C)C2 20.4

Report measured viability, T/C on 422866-222-R5-J1-PDC complex spheroids viability; entry: O=C(c1ccc(F)c(F)c1Nc1ccc(I)cc1F)N1CC(O)([C@@H]2CCCCN2)C1 + CCn1c(-c2cccnc2C(C)OC)c2c3cc(ccc31)N1CCOC(CC(NC(=O)C(C(C)C)N(C)C(=O)C3(F)CCN(C(=O)C#CC(C)(C)N(C)C)CC3)C(=O)N3CCCC(N3)C(=O)OCC(C)(C)C2)C1 9.56

Report measured viability, T/C on 422866-222-R5-J1-PDC complex spheroids viability; entry: CCC(CC)c1cc(NC2CCC(N)C2)n2nccc2n1 (stereo not given) + CCn1c(-c2cc(N3CCN(C)CC3)cnc2C(C)OC)c2c3cc(ccc31)-c1csc(n1)CC(NC(=O)C1CC1C)C(=O)N1CCCC(N1)C(=O)OCC(C)(C)C2 27.7

Report measured viability, T/C on 422866-222-R5-J1-PDC complex spheroids viability; entry: CCC(CC)c1cc(NC2CCC(N)C2)n2nccc2n1 (stereo not given) + CCn1c(-c2cccnc2C(C)OC)c2c3cc(ccc31)N1CCOC(CC(NC(=O)C(C(C)C)N(C)C(=O)C3(F)CCN(C(=O)C#CC(C)(C)N(C)C)CC3)C(=O)N3CCCC(N3)C(=O)OCC(C)(C)C2)C1 25.4

Report measured viability, T/C on 422866-222-R5-J1-PDC complex spheroids viability; entry: Cc1nc(N2CCC3(CC2)COC(C)C3N)c(CO)nc1Sc1ccnc(N)c1Cl (stereo not given) + CCn1c(-c2cccnc2C(C)OC)c2c3cc(ccc31)N1CCOC(CC(NC(=O)C(C(C)C)N(C)C(=O)C3(F)CCN(C(=O)C#CC(C)(C)N(C)C)CC3)C(=O)N3CCCC(N3)C(=O)OCC(C)(C)C2)C1 14.9

Report measured viability, T/C on 422866-222-R5-J1-PDC complex spheroids viability; entry: CC(Nc1ccc2c(c1)OCCn1cc(N3C(=O)OCC3C(F)F)nc1-2)C(N)=O (stereo not given) + CCn1c(-c2cc(N3CCN(C)CC3)cnc2C(C)OC)c2c3cc(ccc31)-c1csc(n1)CC(NC(=O)C1CC1C)C(=O)N1CCCC(N1)C(=O)OCC(C)(C)C2 6.27

Report measured viability, T/C on 422866-222-R5-J1-PDC complex spheroids viability; entry: Nc1ccn(C2OC(CO)C(O)C2(F)F)c(=O)n1 (stereo not given) + CCn1c(-c2cc(N3CCN(C)CC3)cnc2C(C)OC)c2c3cc(ccc31)-c1csc(n1)CC(NC(=O)C1CC1C)C(=O)N1CCCC(N1)C(=O)OCC(C)(C)C2 14.7

Report measured viability, T/C on 422866-222-R5-J1-PDC complex spheroids viability; entry: C=CC(=O)N1CCN(c2nc(OCC3CCCN3C)nc3c(F)c(-c4nc(N)cc(C)c4C(F)(F)F)c(Cl)cc23)C(C)C1 (stereo not given) + CCn1c(-c2cc(N3CCN(C)CC3)cnc2C(C)OC)c2c3cc(ccc31)-c1csc(n1)CC(NC(=O)C1CC1C)C(=O)N1CCCC(N1)C(=O)OCC(C)(C)C2 22.9

Report measured viability, T/C on 422866-222-R5-J1-PDC complex spheroids viability; entry: C=CC(=O)Nc1cc(Nc2nccc(-c3cn(C)c4ccccc34)n2)c(OC)cc1N(C)CCN(C)C + CCn1c(-c2cc(N3CCN(C)CC3)cnc2C(C)OC)c2c3cc(ccc31)-c1csc(n1)CC(NC(=O)C1CC1C)C(=O)N1CCCC(N1)C(=O)OCC(C)(C)C2 15.6

Report measured viability, T/C on 422866-222-R5-J1-PDC complex spheroids viability; entry: CCN1CCN(Cc2ccc(Nc3ncc(F)c(-c4cc(F)c5nc(C)n(C(C)C)c5c4)n3)nc2)CC1 + CCn1c(-c2cccnc2C(C)OC)c2c3cc(ccc31)N1CCOC(CC(NC(=O)C(C(C)C)N(C)C(=O)C3(F)CCN(C(=O)C#CC(C)(C)N(C)C)CC3)C(=O)N3CCCC(N3)C(=O)OCC(C)(C)C2)C1 40.3

Report measured viability, T/C on 422866-222-R5-J1-PDC complex spheroids viability; entry: CC1(O)CCCC1n1c(=O)c(C(F)F)cc2cnc(NC3CCN(S(C)(=O)=O)CC3)nc21 (stereo not given) + CCn1c(-c2cccnc2C(C)OC)c2c3cc(ccc31)N1CCOC(CC(NC(=O)C(C(C)C)N(C)C(=O)C3(F)CCN(C(=O)C#CC(C)(C)N(C)C)CC3)C(=O)N3CCCC(N3)C(=O)OCC(C)(C)C2)C1 23
